assayed-target: T1, soluble ICAM-1 (Bender MedSystems) (UniProt P05362 28-480, limits assumed)
T1 construct: Bought soluble protein coated on the ELISA plate
T1 sequence (P05362 28-480 limits assumed): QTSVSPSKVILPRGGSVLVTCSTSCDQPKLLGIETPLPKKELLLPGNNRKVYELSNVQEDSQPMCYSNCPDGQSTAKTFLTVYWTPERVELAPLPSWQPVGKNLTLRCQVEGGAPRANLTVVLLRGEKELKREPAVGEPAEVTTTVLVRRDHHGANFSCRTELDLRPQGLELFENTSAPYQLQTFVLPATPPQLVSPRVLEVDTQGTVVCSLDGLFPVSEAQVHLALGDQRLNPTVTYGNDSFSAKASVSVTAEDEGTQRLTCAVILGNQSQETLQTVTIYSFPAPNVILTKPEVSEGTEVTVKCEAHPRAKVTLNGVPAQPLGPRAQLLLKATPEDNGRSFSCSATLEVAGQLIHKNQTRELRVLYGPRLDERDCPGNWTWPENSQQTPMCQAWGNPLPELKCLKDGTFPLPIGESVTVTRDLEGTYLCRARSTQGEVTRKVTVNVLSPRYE
assay-summary: ELISA on plate-coated soluble ICAM-1, His-tagged scFv detected with anti-His-HRP
Exercise: state measured Kd for each of the binders provided.

Consider the binder HscB (humanized 1A6 scFv HumB) (scFv, also called Hum19; Hum 19 scFv; not shown: carboxy-terminal His tag of vector pBAD/pIII A) scFv: DIQMTQSPSSLSASVGDRVTITCRASQSISNNLHWYQQKPGKAPKLLIYHASQSISGVPSRFSGSGSGTDFTLTISSLQPEDFATYYCQQSNSWPYTFGQGTKVEIKRGGGGSGGGGSGGGGSGGGGSEVQLVESGGGLVQPGGSLRLSCAASGFNIKDTYIHWVRQAPGKGLEWVARIDPANDNTIYADSVKGRFTISSDDSKNTAYLQMNSLRAEDTAVYYCTASGYWFAYWGQGTLVTVSS . State its measured Kd.
0.0262 µM

Consider the binder HscI (humanized 1A6 scFv HumI) (scFv, not shown: carboxy-terminal His tag of vector pBAD/pIII A) scFv: DIQMTQSPSSLSASVGDRVTITCRASQSISNNLHWYQQKPGKAPKLLIKHASQSISGVPSRFSGSGSGTDFTLTISSLQPEDFATYYCQQSNSWPYTFGQGTKVEIKRGGGGSGGGGSGGGGSGGGGSEVQLVESGGGLVQPGGSLRLSCAASGFNIKDTYIHWMRQAPGKGLEWVARIDPANDNTIYDPKVQGRFTMSADTSKNTAYLQMNSLRAEDTAVYYCTTSGYWFAYWGQGTLVTVSS and give its recorded Kd.
0.15 µM

Give the reported value of Kd for this record: HscF (humanized 1A6 scFv HumF) (scFv, not shown: carboxy-terminal His tag of vector pBAD/pIII A) scFv: DIQMTQSPSSLSASVGDRVTITCRASQSISNNLHWYQQKPGKAPKLLIYHASQSISGVPSRFSGSGSGTDFTLTISSLQPEDFATYYCQQSNSWPYTFGQGTKVEIKRGGGGSGGGGSGGGGSGGGGSEVQLVESGGGLVQPGGSLRLSCAASGFNIKDTYIHWVRQAPGKGLEWVARIDPANDNTIYADSVKGRFTISADDSKNTAYLQMNSLRAEDTAVYYCTTSGYWFAYWGQGTLVTVSS
0.046 µM
